- Protocol text: Delivery of lutein across chicken egg epithelial membrane with polyamine/amine carrier
- Test context: chicken, 60 seconds
Measure: % peptide transported across membrane (%)
One number for each entry, in %.

Please review the entries below; each comes with its answer.
INSERT INTO measurements (molecule, scale_unit, reported_value) VALUES
  ('CNCCCN [3-(Methylamino)propylamine]', '%', 6.5),
  ('NCCCNCCCNCCCN', '%', 19.5),
  ('NCCN [Ethylenediamine]', '%', 2.3),
  ('N=C(N)N [Guanidine]', '%', 8.0),
  ('NCCN(CCN)CCN [Tris(2-aminoethyl)amine]', '%', 4.7);

Give % peptide transported across membrane for all molecules that follow.
1. CCCCNCCCC [Dibutylamine]
2. NCCNCCNCCNCCN [Tetraethylenepentamine]

[10.7, 11.5]
